# assayedSystem: T1, cynomolgus CD16 expressed on CHO-K1 cells (cynomolgus, UniProt Q8SPW2 17-254)
# T1 construct: whole, on cells; also called cyno CD16; CHO-K1-cynoCD16
# T1 sequence (Q8SPW2 17-254): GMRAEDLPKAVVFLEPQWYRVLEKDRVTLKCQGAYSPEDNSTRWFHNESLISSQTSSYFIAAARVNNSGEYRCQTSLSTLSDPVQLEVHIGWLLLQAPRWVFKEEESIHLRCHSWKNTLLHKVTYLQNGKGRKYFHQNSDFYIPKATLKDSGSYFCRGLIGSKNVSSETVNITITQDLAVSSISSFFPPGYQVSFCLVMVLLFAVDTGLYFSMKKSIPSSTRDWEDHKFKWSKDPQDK
# experimentSummary: flow cytometry, CHO-K1-cyno CD16 cells, Alexa Fluor 647 anti-human IgG Fc, geometric mean
measureName: EC50 (read off the curve)

Challenge: // EC50 (read off the curve) lookup, key: 45H6E8-z20 (antibody, human IgG1, V domains shown, Human IgG1 LALAPG constant region; also called HU-VH1-7 / HU-VL1-3) VH: QVQLVQSGAEVKKPGASVKVSCKVSGYTLTDYYMQWVRQAPGKGLEWMGWIDPENGDTEYAPKFQGRATMTADTSTDTAYMELSSLRSEDTAVYYCTTGGNYVDWGQGTTVTVSS VL: DIQMTQSPSFLSASVGDRVTITCKASQNVGTAVAWYQQKPGKAPKLLIYSASNRYTGVPDRFSGSGSGTDFTLTISSLQPEDFATYFCQQYSSYPLLTFGQGTRLEIK
Response given: ~1 nM
